# assayed_system: Ras farnesyl transferase (Rattus norvegicus, UniProt Q02293+Q04631)
# Construct: endogenous in cells; host or cells: Rat2 fibroblasts transformed with C-Harvey-Ras, or with H-Ras carrying the K-Ras C-terminal polybasic lysine domain
# test_protocol: in vivo (cellular) Ras farnesyl transferase inhibitory activity, Rat2 cells expressing C-Harvey-Ras
# Type: cell-based
# test_conditions: Rat2 cell line expressing C-Harvey-Ras; concentration inhibiting 50% of farnesyl binding of Ras protein; read-out: H-Ras CIC50
measured_attribute: IC50 (nM)
One number for each entry, in nM.

Field: example entries. Status: answers known.
{"columns": ["compound_structure", "assayed_system", "measured_attribute", "unit_tag", "result_number"],
 "data": [
  ["CCCCCCC(=O)N1CCC(Cn2cncc2Cn2cc(C(=O)N(C)CCOC)c(-c3cccc4ccccc34)c2)CC1", "Ras farnesyl transferase (Rattus norvegicus, UniProt Q02293+Q04631)", "IC50", "nM", 10],
  ["CN1CCN(C(=O)c2cn(Cc3cncn3CC3CCN(C(=O)N(C)Cc4ccccc4)CC3)cc2-c2cccc3ccccc23)CC1", "Ras farnesyl transferase (Rattus norvegicus, UniProt Q02293+Q04631)", "IC50", "nM", 50]
]}

Alright, here's another molecule for you.
Please look up its IC50: `CN1CCN(C(=O)c2cn(Cc3cncn3CC3CCN(C(=O)N(C)C)CC3)cc2-c2cccc3ccccc23)CC1`
50

Origin of measurements: patent US6436960B1
